This document collects IC50 values reported for UniProt P41144.
Sequence (P41144 whole entry): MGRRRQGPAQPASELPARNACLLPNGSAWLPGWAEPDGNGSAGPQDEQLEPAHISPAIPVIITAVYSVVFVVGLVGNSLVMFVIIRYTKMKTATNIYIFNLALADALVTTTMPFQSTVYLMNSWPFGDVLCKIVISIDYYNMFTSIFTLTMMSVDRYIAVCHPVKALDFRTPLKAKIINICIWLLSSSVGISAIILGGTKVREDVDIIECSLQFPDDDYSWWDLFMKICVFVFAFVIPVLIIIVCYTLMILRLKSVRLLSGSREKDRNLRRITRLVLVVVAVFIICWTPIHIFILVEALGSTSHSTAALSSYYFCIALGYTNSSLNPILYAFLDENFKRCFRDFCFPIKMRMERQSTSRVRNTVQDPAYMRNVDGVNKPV
Square brackets hold non-standard residues; d marks the D form. Peptide text beside a SMILES is read from it. dCha = N[C@H](CC1CCCCC1)C(=O)O; dNle = CCCC[C@@H](N)C(=O)O
Answers are plain numbers, in nM.

Use the examples below as a reference point.
molecule: N=C(N)NCCC[C@@H](NC(=O)[C@H](Cc1c[nH]c2ccccc12)NC(=O)[C@@H](Cc1ccccc1)NC(=O)[C@H](N)Cc1ccccc1)C(=O)O [SEQ ID NO. 14, (D)Phe-(D)Phe-Trp-(D)Arg] (H-[dF][dF]W[dR]-OH)
subjectOfTest: UniProt P41144
measurementUnits: nM
IC50: 4950
//
molecule: CC[C@@H](C)[C@@H](NC(=O)[C@@H](Cc1ccccc1)NC(=O)[C@H](N)Cc1ccccc1)C(=O)N[C@H](CC1CCCCC1)C(=O)O [SEQ ID NO. 17, (D)Phe-(D)Phe-(D)Ile-(D)ChAla] (H-[dF][dF][dI][dCha]-OH)
subjectOfTest: UniProt P41144
measurementUnits: nM
IC50: 169
//
molecule: CCCC[C@@H](N)C(=O)N[C@H](Cc1ccccc1)C(=O)N[C@@H](C(=O)N[C@H](CCCNC(=N)N)C(=O)O)[C@H](C)CC [SEQ ID NO. 26, (D)Nle-(D)Phe-(D)Ile-(D)Arg] (H-[dNle][dF][dI][dR]-OH)
subjectOfTest: UniProt P41144
measurementUnits: nM
IC50: 16

Prompt: Quote IC50 with test system UniProt P41144 for CCCC[C@@H](NC(=O)[C@@H](Cc1ccccc1)NC(=O)[C@H](N)Cc1ccccc1)C(=O)N[C@H](CC1CCCCC1)C(=O)O [SEQ ID NO. 13, (D)Phe-(D)Phe-(D)Nle-(D)ChAla] (H-[dF][dF][dNle][dCha]-OH)
Response: 3

Reference source for all entries: patent US5610271A
